# testProtocol: qHTS for Inhibitors of human tyrosyl-DNA phosphodiesterase 1 (TDP1): qHTS in cells in absence of CPT; further: nearly all actives have a fitted effect of over 55% in size
# cond: DT40 Tdp1-/- hTDP1 cells, no CPT, ATP luminescence, 48 h
About 64,000 (15%) of roughly 420,000 compounds were called active. About 27% were inconclusive and are not listed. The call rests on the fitted dose curve; in most records, active means well fitted inhibition curve with a large enough effect; inconclusive means small, poorly fitted or top-dose-only effect; inactive means flat fitted curve, though single readings scatter. Only a sample is shown.
# valid calls are active, inactive; nothing else

compound | cat
Cc1ccc(NC(=O)OCCNC(=O)c2ccncc2)cc1 | inactive

Recorded test outcome, item O=C1CCC[C@@H]2CC(N3CCCCC3)C[C@@H]3CCN1[C@H]23 (stereo partly drawn)
inactive

Recorded test outcome, item c1ccc2[nH]c(NCCN3CCOCC3)nc2c1
inactive

Recorded test outcome, item CCN(CCCNC(=O)c1c(C)oc2ncn(CC(C)C)c(=O)c12)Cc1ccccc1
inactive

====

# testProtocol: qHTS for Inhibitors of human tyrosyl-DNA phosphodiesterase 1 (TDP1): qHTS in cells in absence of CPT; further: nearly all actives have a fitted effect of over 55% in size; further: potency means the concentration at half of the fitted maximal effect
# cond: DT40 Tdp1-/- hTDP1 cells, no CPT, ATP luminescence, 48 h
Hit rate of the full screen: of about 420,000 compounds, about 64,000 (15%) were called active. Roughly 27% stayed inconclusive and do not appear here. These entries were drawn from the full list.
endpointLabel: Potency

Use the examples below as a reference point.
compound | Potency
CC(=O)N1CCN(Cc2cc(=O)oc3cc(C)ccc23)CC1 | inactive
O=c1cc(CN2CCN(S(=O)(=O)/C=C/c3ccccc3)CC2)c2ccc(O)cc2o1 | 20.6 µM (active)
C[C@@H]1O[C@@H](OC[C@H]2O[C@@H](Oc3c(-c4ccc(O)cc4)oc4cc(O)cc(O)c4c3=O)[C@H](O)[C@@H](O)[C@@H]2O)[C@H](O)[C@H](O)[C@H]1O | inactive
NC(=O)CCN1CCN(S(=O)(=O)/C=C/c2ccccc2)CC1 | inactive

Turning to the following compound.
Consider the compound CC1CCc2c(sc3c2C2=NS(=O)(=O)CCN2C=N3)C1 (stereo not given) and give its measured Potency.
inactive

====

# testProtocol: qHTS for Inhibitors of human tyrosyl-DNA phosphodiesterase 1 (TDP1): qHTS in cells in absence of CPT; further: nearly all actives have a fitted effect of over 55% in size
# cond: DT40 Tdp1-/- hTDP1 cells, no CPT, ATP luminescence, 48 h
Hit rate of the full screen: of about 420,000 compounds, about 64,000 (15%) were called active. Another 27% or so got no clear call; they are omitted. The call rests on the fitted dose curve; in most records, active means well fitted inhibition curve with a large enough effect; inconclusive means small, poorly fitted or top-dose-only effect; inactive means flat fitted curve, though single readings scatter. A selection follows.
# valid calls are active, inactive; nothing else

compoundStructureString | cat
COc1cccc(NC(=O)c2csnn2)c1 | inactive
CCOc1c(N2CCCCC2)c(=O)c1=O | inactive
Nc1nonc1-c1nc2ccccc2n1CCC(=O)O | inactive
CC(=O)Nc1nc(C)c(-c2csc(Nc3ccc(S(N)(=O)=O)cc3)n2)s1 | inactive
Cc1nc(NC(=O)CCC(=O)O)sc1C(=O)N(C)C | inactive

Recorded test outcome, item CCCCCCC(=O)Nc1nc(C)c(-c2csc(Nc3cccc(OC)c3)n2)s1
active

====

# testProtocol: qHTS for Inhibitors of human tyrosyl-DNA phosphodiesterase 1 (TDP1): qHTS in cells in absence of CPT; further: nearly all actives have a fitted effect of over 55% in size
# cond: DT40 Tdp1-/- hTDP1 cells, no CPT, ATP luminescence, 48 h
Among all 420,000 compounds or so, about 64,000 (15%) were called active. Another 27% or so got no clear call; they are omitted. The call rests on the fitted dose curve; in most records, active means well fitted inhibition curve with a large enough effect; inconclusive means small, poorly fitted or top-dose-only effect; inactive means flat fitted curve, though single readings scatter. These entries were drawn from the full list.
# valid calls are class 1 (active), class 0 (inactive); nothing else

Consider the worked cases shown below.
molecule | cat
O=C(CN1CCOCC1)Nc1ccc(NC(=O)CN2CCOCC2)c(Cl)c1 | class 0
O=C1NC[C@@H](Cc2ccc(O)cc2)N(CCc2cccc(F)c2)C1=O | class 0
Nn1cnnc1N/N=C/c1cc([N+](=O)[O-])c(Cl)cc1Cl | class 0

Recorded test outcome, item OCCn1c(-c2ccccc2)csc1=Nc1ccccc1
class 1

Recorded test outcome, item O=C(/C=C/c1ccc(Cl)cc1)N1CCN(c2ccccc2[N+](=O)[O-])CC1
class 0

Recorded test outcome, item O=C(COC(=O)Cn1cnc2ccccc21)Nc1cccc2c1C(=O)c1ccccc1C2=O
class 1

====

# testProtocol: qHTS for Inhibitors of human tyrosyl-DNA phosphodiesterase 1 (TDP1): qHTS in cells in absence of CPT; further: nearly all actives have a fitted effect of over 55% in size
# cond: DT40 Tdp1-/- hTDP1 cells, no CPT, ATP luminescence, 48 h
Screen size: about 420,000 compounds; about 64,000 (15%) were called active. Not shown: some 27% with an inconclusive outcome. The call rests on the fitted dose curve; in most records, active means well fitted inhibition curve with a large enough effect; inconclusive means small, poorly fitted or top-dose-only effect; inactive means flat fitted curve, though single readings scatter. A selection follows.
# valid calls are active, inactive; nothing else

compound | cat
CC(=O)c1cc(C#N)c(N2CCCCC2)nc1C | inactive

Recorded test outcome, item Cc1ccc(OC(=O)c2cncc(Br)c2)c(C)c1
inactive

Recorded test outcome, item CCOC(=O)c1ccc(NC(=O)Cn2cc(S(=O)(=O)Cc3ccccc3F)c3ccccc32)cc1
inactive

Recorded test outcome, item CC(=O)OCC1(O)CC23CCC4c5ccoc5CCC4(C)C2CCC1C3 (configuration not stated)
active

Recorded test outcome, item CC(C)NC(=O)N1CC[C@@]2(CCCN(C(=O)c3cccn3C)C2)C1
inactive

Recorded test outcome, item COc1cccc(NC(=O)CS(=O)(=O)c2cn(CC(=O)N3CCOCC3)c3ccccc23)c1
inactive

Recorded test outcome, item CCOC(=O)C1CCN(Cc2nnc(-c3cccc(Br)c3)o2)CC1
inactive

Recorded test outcome, item Cc1cccc(NC(=O)Cn2cc(S(=O)(=O)Cc3ccccc3Cl)c3ccccc32)c1
active

Recorded test outcome, item CC(=O)Nc1ccc(NC(=O)CSc2nnc3c4cc(Br)ccc4n(C)c3n2)cc1
inactive

Recorded test outcome, item CC(C)[C@H](NC(=O)c1ccc(F)cc1)C(=O)OCC(=O)NC(=O)c1cccn1C
inactive

Recorded test outcome, item CN(CC(=O)NCCc1ccc(S(N)(=O)=O)cc1)CC(=O)Nc1ccc(Cl)cc1
inactive

Recorded test outcome, item CCOc1ccc(Nc2nc(Cl)nc(N3CCN(c4ccc(OC)cc4)CC3)n2)cc1
active

Recorded test outcome, item CCOC(=O)C1CCN(c2ncnc3c2c(-c2ccccc2)cn3-c2cccc(C)c2)CC1
active

Recorded test outcome, item CC(=O)c1cc(C#N)c(SCC(=O)C(C)(C)C)nc1C
active

Recorded test outcome, item O=C1C(C=NCC2CCCO2)=C(O)c2ccccc21 (configuration not stated)
inactive

Recorded test outcome, item CSc1nc(C)cc(SC(C(C)=O)C(=O)Nc2ccccc2)n1 (configuration not stated)
inactive

Recorded test outcome, item CCOC(=O)C1CCCN(C(=O)c2cccc3ccccc23)CC1 (configuration not stated)
inactive

Recorded test outcome, item COC(=O)CNc1nc(Cl)nc(N2CCC(C)CC2)n1
inactive

====

# testProtocol: qHTS for Inhibitors of human tyrosyl-DNA phosphodiesterase 1 (TDP1): qHTS in cells in absence of CPT; further: nearly all actives have a fitted effect of over 55% in size
# cond: DT40 Tdp1-/- hTDP1 cells, no CPT, ATP luminescence, 48 h
# Protocol: Human tyrosyl-DNA phosphodiesterase 1 (TDP1) is a novel repair gene, and we propose to use it as a new target for anticancer drug development. […] For the primary screen, Tdp1-/-;hTDP1 cells will be exposed to small molecules in the presence or absence of CPT, and their growth kinetics will be evaluated after 48 hours by measuring ATP activity. […] The hit compounds will then be evaluated in the presence or absence of CPT using Tdp1-/- cells. […]
In all, about 420,000 compounds went through this assay and about 64,000 (15%) were called active. Inconclusive results (about 27%) are left out. The call rests on the fitted dose curve; in most records, active means well fitted inhibition curve with a large enough effect; inconclusive means small, poorly fitted or top-dose-only effect; inactive means flat fitted curve, though single readings scatter. Only a sample is shown.
# valid calls are true (1) (active), false (0) (inactive); nothing else

Consider the worked cases shown below.
compoundStructureString | cat
COC(=O)c1[nH]c2ccccc2c1NS(=O)(=O)c1ccc(OC)cc1OC | false (0)
O=C(Nn1cc(C(=O)N2CCN(c3ccccc3F)CC2)c2ccccc2c1=O)c1cnccn1 | true (1)
CN=c1scc(-c2cc(OC)ccc2OC)n1/N=C/c1c(C)[nH]c2ccccc12 | true (1)
Cc1oc2ncn(CC(C)C)c(=O)c2c1C(=O)N1CCN(c2ccccc2F)CC1 | false (0)

Next compound, please.
Recorded test outcome, item O=[n+]1c2c(n([O-])c3cc(Br)ccc31)CCC2
false (0)

====

# testProtocol: qHTS for Inhibitors of human tyrosyl-DNA phosphodiesterase 1 (TDP1): qHTS in cells in absence of CPT; further: nearly all actives have a fitted effect of over 55% in size; further: potency means the concentration at half of the fitted maximal effect
# cond: DT40 Tdp1-/- hTDP1 cells, no CPT, ATP luminescence, 48 h
Out of some 420,000 compounds screened, about 64,000 (15%) were called active. About 27% were inconclusive and are not listed. Not all results are given here.
endpointLabel: Potency

Use the examples below as a reference point.
molecule | endpointLabel | result
CC1Cc2ccccc2N1C(=O)CSc1nnc(C2CC2)n1C (configuration not stated) | Potency | inactive
CN(C)CCCN(C(=O)COc1ccccc1)c1nc2c(Cl)cccc2s1 | Potency | inactive
COc1cc2ccccc2cc1C(=O)N(CCN(C)C)c1nc2c(F)cccc2s1 | Potency | inactive
Cc1cccc2sc(N(CCCN(C)C)C(=O)CCS(=O)(=O)c3ccccc3)nc12 | Potency | 1.64 µM (active)
O=C(c1cnccn1)N1CCC2(CCCN(Cc3ccccc3)C2)CC1 | Potency | inactive
O=c1c2ccccc2ncn1/N=C/c1ccccc1 | Potency | inactive
O=C(CCS(=O)(=O)c1ccccc1)N(Cc1cccnc1)c1nc2c(F)cccc2s1 | Potency | 2.31 µM (active)
CCC1(C2CCN(C(=O)c3cccc(F)c3F)CC2)NC(=O)N(CCc2scnc2C)C1=O (configuration not stated) | Potency | inactive
CCOC(=O)CC(NC(=O)C1c2ccccc2Oc2ccccc21)c1ccc(C)cc1 (configuration not stated) | Potency | inactive
COc1ccc(N2CCN(C(=O)CCc3nc(-c4ccc(C)cc4)no3)CC2)cc1 | Potency | inactive

Consider the molecule CCCN(CCC)C(=O)C1c2ccccc2Oc2ccccc21 and give its measured Potency.
25.9 µM (active)

Consider the molecule COc1ccc(OC)c(NC(=O)CN2CCCN(Cc3cc(C)ccc3C)S2(=O)=O)c1 and give its measured Potency.
18.4 µM (active)
